Assay: pKa of weakly basic centre
Assay type: physicochemical
Conditions: N-7 of the azaindole portion
READOUT KIND: pKa

Task item: Suppose we examine the molecule CCCS(=O)(=O)Nc1ccc(F)c(C(=O)c2c[nH]c3ncc(-c4ccc(Cl)cc4)cc23)c1F ; what pKa value has been reported?
Reply: 4 to 5

Each recorded value in this set is attributed to patent US9663517B2.
